system: CAMK4; settings: concentration: 1 μM, replicates: in singlicate; n = 1;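 further: KINOMEscan kinase panel screen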
quantity_name: %Inh (%)
Response body: numeric value in %, unit text excluded.

Task: I am curious: what %Inh value has been reported for Fc1ccc(-c2nc[nH]c2-c2ccncc2)cc1 ?
Result: 0

---
Task: Could you tell me which %Inh is on file for COc1ccc(Nc2nccc(N3CCC(NC(=O)c4cc5ccccc5s4)C3)n2)cc1 (stereo not shown) ?
Result: 0

Task: Try COc1ccc(Nc2nccc(N3CCC(NC(=O)C(C)c4ccc(Cl)cc4)CC3)n2)cc1 (stereo not shown) next.
Result: 0

Task: How about Cc1c(Cn2c(C)c(C)n3c(=O)cc(N4CCOCC4)nc23)cccc1C(F)(F)F ?
Result: 0

Task: Lookup CS(=O)(=O)CCNCc1nc(-c2ccc3ncnc(Nc4ccc5c(cnn5Cc5ccccc5)c4)c3c2)cs1.Cl.Cl
Result: 0

----------
system: HCK; conditions: concentration: 1 μM, replicates: in singlicate; n = 1
Reported %Inh by item:
Answer format: numeric, % implied, no suffix.

Below, each entry is followed by its recorded %Inh result.
Task: Report %Inh for COc1cccc(C2=C(Nc3cc(Cl)c(O)c(Cl)c3)C(=O)NC2=O)c1 [SB-390767] tested on HCK.
Result: 0

Task: Query O=C(Nc1n[nH]c2nc(-c3cccs3)c(Br)cc12)C1CCCC1 [SB-743341] next
Result: 8

Task: Another compound: Fc1ccc(-c2nc3n(c2-c2ccncc2)CCS3)cc1 [GI98581]
Result: 0

Task: Another: Fc1ccc(-c2nn3cccc(F)c3c2-c2ccncc2)cc1 [GW475620]
Result: 15

Task: Please answer likewise for COc1ccc2cc(-c3nc(-c4ccccc4C(C)C)[nH]c3-c3ccncc3)ccc2c1 [SB-660566]
Result: 0

***
Task: # get_value(readout= %Inh, system= HCK) for COc1cccc(NC(=O)Nc2ccc(C)c(-c3ccc(C(=O)Nc4ccncc4)cc3)c2)c1 [GSK1398474]
Result: 0

Task: Now the compound COc1cc2ncnc(Nc3cccc(Br)c3)c2cc1OC.Cl [GI230329]
Result: 24

Task: And CC(C)c1ccc(O)cc1Nc1ccnc2ccc(C(F)(F)F)cc12 [GW482059] ?
Result: 10

Task: Subsequent entry: CNCc1ccc2nc(NC(=O)c3ccc(C(C)(C)C)cc3)cn2c1
Result: 3

----------
Entries and their %Inh values follow.
tested on: CDKL3; settings: concentration: 1 μM, replicates: in singlicate; n = 1
Return type: number; implicit unit %.

Please review the following examples before continuing.
Task: Using the record for CSc1ccc(-c2nc3n(c2-c2ccncc2)CCC3)cc1 , report its %Inh.
Result: 0

Task: Check Cc1nccc(-c2c(-c3ccc(F)cc3)ncn2CCCN2CCOCC2)n1.Cl too.
Result: 12

Task: Queued: FC(F)(F)c1ccccc1-c1cc(-c2c[nH]nc2-c2ccccn2)ccn1
Result: 0

Could you now look at the following compound, please?
Task: // %Inh lookup, key: COc1ccc(Nc2nccc(NCCNC(=O)Nc3cc(C)ccc3C)n2)cc1
Result: 0

----------
tested on: KIT; conditions: concentration: 1 μM, replicates: in singlicate; n = 1
quantity_name: %Inh (%)
All answers are understood in %, so give the number only.

Example entries begin here.
Task: Which %Inh value is on record for CNc1nc(-c2ccc3c(N)n[nH]c3c2)cc(N2C[C@@H](C(=O)NC3CCCCC3)OC[C@H]2C)n1 ?
Result: 20

Task: Lookup Cc1ccc(-c2nc(Nc3ccncc3)c3ccccc3n2)s1
Result: 22

Task: And what about the compound CC(=O)c1c(C)c2cnc(Nc3ccc(N4CCNCC4)cn3)nc2n(C2CCCC2)c1=O ?
Result: 0

Task: Request: Cc1nccc(-c2c(-c3ccc(F)cc3)ncn2CCCN2CCOCC2)n1.Cl
Result: 0

Task: What do you have for COc1cccc(NC(=O)Nc2ccc(C)c(-c3ccc(C(=O)Nc4ccncc4)cc3)c2)c1 ?
Result: 99.8

***
Task: // lookup %Inh for CC(C)c1ccc(O)cc1Nc1ccnc2ccc(C(F)(F)F)cc12
Result: 0

Task: Field entry: CCn1c(-c2ccccc2)nc2cnccc21
Result: 8

Task: Please give the result for CCc1ccc(-c2ccc3c(c2)-c2n[nH]cc2S(=O)(=O)N3C)cc1 too.
Result: 7

Task: How about COc1ccc(-c2coc3ccc(-c4nnc(C)o4)cc23)cc1 ?
Result: 1

----------
tested on: NDR1; construct: gene STK38; conditions: concentration: 1 μM, replicates: in singlicate; n = 1
Recorded %Inh, one value per entry.
The answer is to be given in %; state only the numeric part.

These solved cases illustrate the format of a correct answer.
Task: Given O=C(Nc1n[nH]c2cc(-c3ccsc3)ccc12)C1CC1 , state its recorded %Inh.
Result: 18

Task: # iterate: COC(=O)C(Cc1ccccc1)NC(=O)NC1CCN(c2ccnc(Nc3ccc(F)cc3)n2)C1 (centres unmarked)
Result: 13

Task: And the next one, Nc1nccc(-c2c(-c3ccc(F)cc3)ncn2C2CCN(Cc3ccccc3)CC2)n1 ?
Result: 39

---
Task: # lookup: %Inh of COC(=O)c1cccc(NC(=O)NC2CCN(c3ccnc(Nc4ccc(OC)cc4)n3)C2)c1 (centres unmarked)
Result: 0

Task: Same question, Cl.Cl.Cl.N#Cc1ccc(CCNc2nccc(-c3cccc(CN4CCNCC4)c3)n2)cc1 this time
Result: 4

----------
test system: KIT; details: concentration: 1 μM, replicates: in singlicate; n = 1
quantity_name: %Inh (%)
Report as a plain number; the unit % is understood.

Task: Field: %Inh (KIT). Entry: COc1nccc(-c2c(-c3ccc(F)cc3)ncn2CCCN2CCOCC2)n1 [SB-282852]
Result: 0

Now examine the next entry.
Task: KIT / %Inh / Nc1cccc(-c2ccc3c(N)n[nH]c3c2)n1 [GSK2192730] : value?
Result: 14

----------
tested on: RSK3(Kin.Dom.2-C-terminal); construct: gene RPS6KA2; conditions: concentration: 1 μM, replicates: in singlicate; n = 1
// values below are reported %Inh
API: value field is a number in %; no unit string.

Task: If you can, please state the reported %Inh value of CCn1c(-c2ccccc2)nc2cnccc21 .
Result: 0

Task: Again, but for COc1nccc(-c2c(-c3ccc(F)cc3)ncn2CCCN2CCOCC2)n1
Result: 38

Task: Follow-up entry: Cn1cnc2c(N)ncnc21
Result: 8

Task: // query: CC(=O)c1c(C)c2cnc(Nc3ccn(C)n3)nc2n(C2CCCC2)c1=O
Result: 0

***
Task: Which %Inh is reported for this compound? Fc1ccc(-c2nn3cccc(F)c3c2-c2ccncc2)cc1
Result: 0

Task: Then COC(=O)c1cccc(NC(=O)NC2CCN(c3ccnc(Nc4ccc(F)cc4)n3)C2)c1 (centres unmarked) ?
Result: 0

Task: Could you do the same for CC(C)c1ccc(O)cc1Nc1ccnc2ccc(C(F)(F)F)cc12 , please?
Result: 7

----------
Recorded measurements of %Inh, one per entry
tested on: MAP3K4; conditions: concentration: 1 μM, replicates: in singlicate; n = 1
Provide only the numeric value, understood in %.

Would you please look over these solved cases?
Task: # input compound: CSc1ccc(-c2nc3n(c2-c2ccncc2)CCC3)cc1 ; wanted: its %Inh
Result: 9

Task: And what about the compound Cc1ccc(NC(=O)Nc2ccc(Cl)c(C(F)(F)F)c2)cc1-c1ccc(C(=O)Nc2ccncc2)cc1 ?
Result: 14

Pending compound:
Task: What does the record list as %Inh for COc1ccc(-c2coc3ccc(-c4nnc(C)o4)cc23)cc1 ?
Result: 8

----------
# Lookup of reported %Inh keyed by entry
system: AURKC; conditions: concentration: 1 μM, replicates: in singlicate; n = 1
# output: bare number, implied unit %

Task: Which %Inh is reported with AURKC for this entry: CCc1ccc(-c2ccc3c(c2)-c2n[nH]cc2S(=O)(=O)N3C)cc1 ?
Result: 11

---
Task: Query the reported %Inh for AURKC; item: Nc1nccc(-c2c(-c3ccc(F)cc3)ncn2C2CCN(Cc3ccccc3)CC2)n1
Result: 0

Task: Field entry: CC(=O)c1c(C)c2cnc(Nc3ccn(C)n3)nc2n(C2CCCC2)c1=O
Result: 0

Task: Same question for O=C(Nc1n[nH]c2nc(-c3cccs3)c(Br)cc12)C1CCCC1 please.
Result: 10

Task: Okay, and COC(=O)C(Cc1ccccc1)NC(=O)NC1CCN(c2ccnc(Nc3ccc(F)cc3)n2)C1 (stereo not shown) ?
Result: 35

Task: Repeat with CSc1ccc(-c2nc3n(c2-c2ccncc2)CCC3)cc1
Result: 0

Task: Cool, now COc1ccc(CSc2nnc(-c3ccc4c(c3)CCO4)o2)cc1
Result: 0

Task: Also, COc1ccc(Nc2nccc(NCCNC(=O)Nc3cc(C)ccc3C)n2)cc1 please.
Result: 36

Task: Repeat with Cn1cnc2c(N)ncnc21
Result: 0

Task: Cc1ccc(NC(=O)Nc2ccccc2)cc1-c1ccc(C(=O)Nc2ccncc2)cc1 , same question.
Result: 0
